assay: Brain distribution study; type: in vivo, male C57BL/6 mice; details: mouse; brain, PO 20 mg/kg, male C57BL/6 mice
The reader will find reported MRT inf values listed item by item below.
// units = h; emit number, no label

{"columns": ["Smiles string", "Value type", "Measured result"],
 "data": [
  ["NC(=O)c1ncn2c(=O)n(CCF)nnc12", "MRT inf", 1.57]
]}

Switching to the query record.
Problem: Please give the measured MRT inf for this molecule: `CNC(=O)c1ncn2c(=O)n(CCF)nnc12`
Solution: 0.527
